Reference source: paper PMC8662641

# Test target: BTK-1h (Homo sapiens, UniProt Q06187)
# Construct: The BTK kinase domain was diluted to 2 μM in the buffer, and 2 μM 1h was added; made in house
# Sequence (Q06187 402-655): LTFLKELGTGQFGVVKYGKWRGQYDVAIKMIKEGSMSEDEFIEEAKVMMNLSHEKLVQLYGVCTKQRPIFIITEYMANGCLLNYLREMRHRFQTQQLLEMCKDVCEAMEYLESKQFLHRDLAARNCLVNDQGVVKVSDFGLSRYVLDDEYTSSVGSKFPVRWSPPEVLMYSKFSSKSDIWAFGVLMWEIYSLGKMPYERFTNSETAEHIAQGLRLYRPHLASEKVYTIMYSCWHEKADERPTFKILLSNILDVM
# Assay comment: High-throughput screening with 1h-labeled BTK
# Type: binding
# Condition notes: Dataset S2A; 200 μM compound, BTK-1h, 32 °C, 10 min
Quantity: FI (BTK-1h)/FI (BTK-1h+Inhibitor) at 620 nm

The cases that follow already have their FI (BTK-1h)/FI (BTK-1h+Inhibitor) at 620 nm on record.
INSERT INTO assay_data (smiles_structure, test_result) VALUES
  ('COc1c(-c2ccc3cc(NS(C)(=O)=O)ccc3c2)cc(-n2ccc(=O)[nH]c2=O)cc1C(C)(C)C', 1.031),
  ('COC1=CC(=O)c2ccccc2C1=O', 1.038),
  ('COc1cc(O)c2c(=O)cc(-c3ccc(O)c(O)c3)oc2c1', 1.063),
  ('COC(=O)C1=C(C)NC(C)=C(C(=O)O[C@@H]2CCCN(Cc3ccccc3)C2)[C@@H]1c1cccc([N+](=O)[O-])c1.Cl', 1.03),
  ('C#CC[C@H](c1nc2cc(Cl)ccc2c(=O)n1Nc1ccccc1)N(CCCN)C(=O)c1cccc(Cl)c1F', 1.031);

-- ask Quick one: FI (BTK-1h)/FI (BTK-1h+Inhibitor) at 620 nm for Cn1cc(C2=C(c3cccc(N)c3)C(=O)NC2=O)c2ccccc21 ?
-- reply 1.062

-- ask Look at this compound and give its reported FI (BTK-1h)/FI (BTK-1h+Inhibitor) at 620 nm. C=CC(=O)N1CC[C@@H](Oc2nc(Nc3ccc(N4CCC(N5CCN(C)CC5)CC4)cc3)c(C(N)=O)nc2CC)C1
-- reply 1.04
